# assay-comment: qHTS assay to identify small molecule agonists of the estrogen receptor beta (ER-beta) signaling pathway - cell viability counter screen (AID 1259380); note: nearly all actives have a fitted effect of over 30% in size
# measurement-conditions: ER-beta-bla HEK293T viability, CellTiter-Glo luminescence, 16 h; series mostly up to 92.4 µM
Records with an inconclusive call do not appear. Activity calls are given as the source filed them. Calls come from the whole dose curve; as a rule, active = well fitted cell-killing curve with a large enough effect in the repeat runs; inconclusive = weak or mixed curves, or effect the other way; inactive = flat fitted curve, though single readings scatter.
Thanks in advance; please answer with one of these: active, inactive

For orientation, consider the following solved cases.
> print(dat)
                                   molecule  category
1  COC(=O)C(C)N(C(=O)Cc1ccccc1)c1c(C)cccc1C (stereo not drawn)    active
2    OC(c1ccc(Cl)cc1)(c1ccc(Cl)cc1)c1cccnc1  inactive

**Query** What classification did CCCCC(O)(Cn1cncn1)c1ccc(Cl)cc1Cl (stereo not drawn) end up with in this test?
**Result** active

* * *

# measurement-target: Retinoic acid receptor RXR-alpha (Homo sapiens)
# assay-comment: qHTS assay to identify small molecule agonists of the RXR signaling pathway (AID 1159527); note: nearly all actives have a fitted effect of over 35% in size
# measurement-conditions: HEK293T RXRa-UAS-bla, beta-lactamase ratio, 16 h; series mostly up to 76.8 µM
Results filed as inconclusive are left out. Activity calls are given as the source filed them. Calls come from the whole dose curve.
Response enum: true (1) = active, false (0) = inactive

Example entries begin here.
> print(dat)
                             compound   category
1  C=CC(=O)OCC(C)O (stereo not given)  false (0)
2                         ClCc1ccccc1  false (0)

**Query** How did this test come out for O=Cc1ccc(Cl)cc1Cl ?
**Result** false (0)

**Query** Hi, sorry to bother you, what did the test record for O=S(=O)(O)C(F)(F)C(F)(F)C(F)(F)C(F)(F)F ?
**Result** true (1)

**Query** # lookup: test call for Nc1nc(N)nc(N)n1
**Result** false (0)

**Query** Hi team, can someone confirm the assay call for Cc1ccc2ccccc2c1 ?
**Result** false (0)

* * *

# assay-comment: qHTS assay to identify small molecule antagonists of the estrogen related receptor signaling pathway with the pleiotropic PPARgamma coactivator (PGC) from Tox21 10K library - cell viability counter screen (AID 1224840); note: nearly all actives have a fitted effect of over 40% in size
# measurement-conditions: PGC/ERR reporter cells viability, CellTiter-Fluor, 17.5 h; series mostly up to 92.4 µM
Results filed as inconclusive are left out. Calls of active or inactive are those of the source. Calls come from the whole dose curve; as a rule, active = well fitted cell-killing curve with a large enough effect in the repeat runs (not every such curve was filed as active); inconclusive = weak or mixed curves, or effect the other way; inactive = no such curve, though single readings can be large or run the other way.
Response enum: Y (active), N (inactive)

> print(dat)
                                   compound  category
1  CC(C)(C)C(O)C(Oc1ccc(Cl)cc1)n1cncn1 (stereo not given)         N

**Query** Record lookup: outcome of this test for c1ccoc1 ?
**Result** N

**Query** Record lookup: outcome of this test for CCOP(=O)(OCC)Oc1ccc([N+](=O)[O-])cc1 ?
**Result** N

* * *

# assay-comment: qHTS assay for identifying genotoxic compounds that show differential cytotoxicity against isogenic chicken DT40 cell lines with known DNA damage response pathways - wild type cell line (AID 743012); note: nearly all actives have a fitted effect of over 60% in size
# measurement-conditions: DT40 wild type chicken cells viability, CellTiter-Glo, 40 h; series mostly up to 68.4 µM
Records with an inconclusive call do not appear. The source made the active and inactive calls. Calls come from the whole dose curve; as a rule, active = well fitted cell-killing curve with a large enough effect in the repeat runs; inconclusive = weak or mixed curves, or effect the other way; inactive = no such curve, though single readings can be large or run the other way.
Give your call using only these classes: active, inactive

**Query** Tell me the recorded outcome of this test for CN1[C@@H]2CC[C@H]1CC(OC(=O)c1cc(Cl)cc(Cl)c1)C2 (stereo not given in full) .
**Result** active

* * *

# assay-comment: qHTS assay to identify small molecule that activate the aryl hydrocarbon receptor (AhR) signaling pathway - cell viability counter screen (AID 743086);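 note: HepG2 liver cells carrying the AhR DRE luciferase reporter; nearly all actives have a fitted effect of over 45% in size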
# measurement-conditions: HepG2-AhR-luc viability, CellTiter-Fluor, 24 h; series mostly up to 70.3 µM
# Source text: U.S. Tox21 Program National Center for Advancing Translational Sciences [NCATS] NIH Chemical Genomics Center [NCGC] U.S. Environmental Protection Agency [EPA] National Institutes of Environmental Health Sciences [NIEHS] National Toxicology Program [NTP] U.S. Food and Drug Administration [FDA] Tox21 Assay overview: The Aryl hydrocarbon Receptor (AhR), a member of the family of basic helix-loop-helix transcription factors, is crucial to adaptive responses to environmental changes. […]
Records with an inconclusive call do not appear. Active and inactive are the calls of the source. The call rests on the fitted dose curve; in most records, active means well fitted cell-killing curve with a large enough effect in the repeat runs; inconclusive means weak or mixed curves, or effect the other way; inactive means flat fitted curve, though single readings scatter.
assay-endpoint: outcome

> print(dat)
                                   molecule  assay.endpoint  recorded.measurement
1  CCCCCCCCCC(=O)O[C@H]1CC[C@H]2[C@@H]3CCC4=CC(=O)CC[C@@H]4[C@H]3CC[C@]12C         outcome              inactive
2      O=C(OC1CCCCC1)c1ccccc1C(=O)OC1CCCCC1         outcome              inactive
3  COP(=S)(Oc1cc(Cl)c(Br)cc1Cl)c1ccccc1 (centres undefined)         outcome              inactive
4                  C[C@H]1CNCCc2ccc(Cl)cc21         outcome              inactive

* * *

# assay-comment: qHTS assay for identifying genotoxic compounds that show differential cytotoxicity against isogenic chicken DT40 cell lines with known DNA damage response pathways - wild type cell line (AID 743012); note: nearly all actives have a fitted effect of over 60% in size
# measurement-conditions: DT40 wild type chicken cells viability, CellTiter-Glo, 40 h; series mostly up to 68.4 µM
Results filed as inconclusive are left out. Calls of active or inactive are those of the source. Calls follow the shape of the dose curve; as a rule, active = well fitted cell-killing curve with a large enough effect in the repeat runs; inconclusive = weak or mixed curves, or effect the other way; inactive = no such curve, though single readings can be large or run the other way.
Lab note: assign the record to one of yes = active, no = inactive

> print(dat)
                     compound  category
1  [CH3][Sn]([CH3])([Cl])[Cl]       yes
2             CCn1cc[n+](C)c1        no

**Query** For this compound, state the assay outcome: C=CC(=O)OC
**Result** no

**Query** What classification did Clc1cccc(SC2CCNCC2)n1 end up with in this test?
**Result** no

**Query** For CC(C)(Cl)[N+](=O)[O-] , which call appears in the assay record?
**Result** no

**Query** For CCN(C)N=O , what call appears in the results of this test?
**Result** no

**Query** # outcome recorded in this test, key = CCCC(=O)Cl
**Result** no

**Query** Identify the outcome logged in this assay for the compound shown: c1ccoc1
**Result** no

* * *

# assay-comment: qHTS assay to identify small molecule agonists of the estrogen related receptor (ERR) signaling pathway from Tox21 library (AID 1224849); note: nearly all actives have a fitted effect of over 15% in size
# measurement-conditions: ERR reporter cell line, ONE-Glo luciferase, 18 h; at 92.4 µM (top of the series) unless noted
Activity calls are given as the source filed them. The call rests on the fitted dose curve.
Respond only with the outcome that fits, drawn from Yes for active, No for inactive

Example entries and their recorded answers appear below.
> print(dat)
                                   compound  category
1  CC/C(=N\OC/C=C/Cl)C1=C(O)CC(C2CCOCC2)CC1=O (configuration not stated)        No
2                                    OCCCBr        No
3                            C=CC(=O)OCCCCO       Yes
4  CN1C(=O)C(O)N=C(c2ccccc2)c2cc(Cl)ccc21 (configuration not stated)        No
5  CC[C@H]1C[C@H]2[C@@H]3CCC4=CC(=O)CC[C@@H]4[C@H]3CC[C@]2(C)[C@H]1O        No
6  COP(=S)(Oc1cc(Cl)c(Br)cc1Cl)c1ccccc1 (configuration not stated)        No

**Query** In this assay, the call recorded for Clc1ccc(C2(Cn3cncn3)CC(Br)CO2)c(Cl)c1 (configuration not stated) was what?
**Result** No

* * *

# assay-comment: qHTS assay to identify small molecule antagonists of the peroxisome proliferator-activated receptor gamma (PPARg) signaling pathway - cell viability counter screen (AID 743194); note: nearly all actives have a fitted effect of over 55% in size
# measurement-conditions: PPARg-bla HEK293H viability, CellTiter-Glo luminescence, 17 h; co-treated with 50 nM rosiglitazone; series mostly up to 62.6 µM
Inconclusive results are not listed. Active and inactive are the calls of the source. Calls follow the shape of the dose curve; as a rule, active = well fitted cell-killing curve with a large enough effect in the repeat runs; inconclusive = weak or mixed curves, or effect the other way; inactive = no such curve, though single readings can be large or run the other way.
assay-endpoint: outcome

Here is how some compounds turned out for outcome.
> print(dat)
                                   compound  recorded.measurement
1  CCCCCCCCOC(=O)c1ccc(C(=O)OCCCCCCCC)c(C(=O)OCCCCCCCC)c1              inactive
2  COc1nn(C(=O)NS(=O)(=O)c2ccccc2OC(F)(F)F)c(=O)n1C              inactive
3                      COc1cc(Cl)c(OC)cc1Cl              inactive
4                                        II              inactive
5    O=C(NCc1cccnc1)Nc1ccc([N+](=O)[O-])cc1              inactive

**Query** Request the reported outcome associated with COCCOCCO
**Result** inactive

**Query** Consider the compound shown here: ClCc1cccc(Cl)c1 What is its recorded outcome?
**Result** inactive

**Query** Could you tell me which outcome is on file for c1ccoc1 ?
**Result** inactive

**Query** Returns the measured outcome for the input compound. Input: Cc1ccc(N)cc1C
**Result** inactive

**Query** Value lookup for outcome; key = Nc1ccc(N=Nc2ccc(-c3ccc(N=Nc4c(S(=O)(=O)O)cc5cc(S(=O)(=O)O)c(N=Nc6ccccc6)c(O)c5c4N)cc3)cc2)c(N)c1
**Result** inactive

**Query** Could you tell me which outcome is on file for c1ccc(CN2CCNCC2)cc1 ?
**Result** inactive

**Query** GET /values?readout=outcome&item= ClCCCCBr
**Result** inactive

**Query** Quick one: outcome of Clc1ccc(C(OCCN2CCCCC2)c2ccccc2)cc1 (stereo not drawn) ?
**Result** inactive

**Query** Form field: reported outcome of [CH3][Sn]([CH3])([Cl])[Cl]
**Result** inactive

**Query** Request the reported outcome associated with CC(C)N(CCC(C(N)=O)(c1ccccc1)c1ccccn1)C(C)C (stereo not drawn)
**Result** inactive

**Query** For the compound CCOC(=O)CBr , what outcome is on record?
**Result** inactive

**Query** What does the data say about its outcome? Entry: CCn1cc[n+](C)c1
**Result** inactive

**Query** Query: outcome; subject: Nc1nc(N)nc(N)n1
**Result** inactive
